Origin of values: patent US20210301025A1

Measured binding relative to P54AR4-83v2 parent of individual entries
Molecular target: EGFR (form used in the assay not stated) (human, UniProt P00533 25-645, limits assumed)
Experiment: ELISA, NEM conjugate, 100 nM
MEASURED_PROPERTY: binding relative to P54AR4-83v2 parent (ratio)

>>> value_measured("P54AR4-83v2 E39C, NEM conjugate (designed binder, not shown: small tags and cut ends, N-ethyl maleimide (NEM) on Cys 39) LPAPKNLVVSEVTEDSARLSWDDPWAFYESFLIQYQESCKVGEAIVLTVPGSERSYDLTGLKPGTEYTVSIYGVHNVYKDTNMRGLPLSAIFTT")
1
>>> value_measured("P54AR4-83v2 E29C, NEM conjugate (designed binder, not shown: small tags and cut ends, N-ethyl maleimide (NEM) on Cys 29) LPAPKNLVVSEVTEDSARLSWDDPWAFYCSFLIQYQESEKVGEAIVLTVPGSERSYDLTGLKPGTEYTVSIYGVHNVYKDTNMRGLPLSAIFTT")
1.07
>>> value_measured("P54AR4-83v2 T48C, NEM conjugate (designed binder, not shown: small tags and cut ends, N-ethyl maleimide (NEM) on Cys 48) LPAPKNLVVSEVTEDSARLSWDDPWAFYESFLIQYQESEKVGEAIVLCVPGSERSYDLTGLKPGTEYTVSIYGVHNVYKDTNMRGLPLSAIFTT")
1
>>> value_measured("P54AR4-83v2 G60C, NEM conjugate (designed binder, not shown: small tags and cut ends, N-ethyl maleimide (NEM) on Cys 60) LPAPKNLVVSEVTEDSARLSWDDPWAFYESFLIQYQESEKVGEAIVLTVPGSERSYDLTCLKPGTEYTVSIYGVHNVYKDTNMRGLPLSAIFTT")
1.02
